# assay procedure: soluble on expression in E. coli; label from the status in PepcDB or PDB records
readout label: soluble on expression in E. coli

// below: answered sequences
| biopolymer sequence | readout label | value measured |
| --- | --- | --- |
| MATLEQKLTVLISDTIESMGYELVGVECQHAGRFLTVRLYIDKEGGVTIDDCSDVSRQVSAIFDVEDPISDKYNLEVSSPGLDRPLFTLAHYARFVGREMVIHLRIPMFDRRKWQGKLTKVDGDLISLEIENNGEHQFIFSNIQKANLIPVFDF | soluble on expression in E. coli | not soluble |
| INTVNLINQMKTLAAQAEGIKPDSGLNHASFSSVFQQALNQVNELSQTADSLKTRFEIGDPNVSLGEVMIASQKSNLGFEATLRVRNKLVQAYQDIMNMPV | soluble on expression in E. coli | not soluble |
| GMWDETELGLYKVNEYVDARDTNMGAWFEAQVVRVTRKAPSRDEPCSSTSRPALEEDVIYHVKYDDYPENGVVQMNSRDVRARARTIIKWQDLEVGQVVMLNYNPDNPKERGFWYDAEISRKRETRTARELYANVVLGDDSLNDCRIIFVDEVFKIERPGE | soluble on expression in E. coli | soluble |
| MESGHRFDAQTLHSFIQAVFRQMGSEEQEAKLVADHLIAANLAGHDSHGIGMIPSYVRSWSQGHLQINHHAKTVKEAGAAVTLDGDRAFGQVAAHEAMALGIEKAHQHGIAAVALHNSHHIGRIGYWAEQCAAAGFVSIHFVSVVGIPMVAPFHGRDSRFGTNPFCVVFPRKDNFPLLLDYATSAIAFGKTRVAWHKGVPVPPGCLIDVNGVPTTNPAVMQESPLGSLLTFAEHKGYALAAMCEILGGALSGGKTTHQETLQTSPDAILNCMTTIIINPELFGAPDCNAQTEAFAEWVKASPHDDDKPILLPGEWEVNTRRERQKQGIPLDAGSWQAICDAARQIGMPEETLQAFCQQLAS | soluble on expression in E. coli | soluble |
| MSLQLRSRAAFKLEFLLDRYRVVRKGDAVIEIGSSPGGWTQVLNSLARKIISIDLQEMEEIAGVRFIRCDIFKETIFDDIDRALREEGIEKVDDVVSDAMAKVSGIPSRDHAVSYQIGQRVMEIAVRYLRNGGNVLLKQFQGDMTNDFIAIWRKNFSSYKISKPPASRGSSSEIYIMFFGFKAEGHHHHHH | soluble on expression in E. coli | soluble |

// switching to the query sequence
sequence `MGSDKIHHHHHHMFQPPLIAFLTDFGLEDAFVGVMKGVIATICREAQVIDLTHAISAQNVRQAAFHLDRSISYFPAETIFVCVVDPGVGTARRAIGVEAGPYRFIAPDNGLLTPVFERWADAKCHELTNPAYQLANPSATFHGRDLFSPAAAHLATGVPLNAFGSAIDVANCTRIELWQNKPCDNGKVWTGEVIATDHFGNLITSFEASMLSDGEDWTVKAGNAEPLPILRTYGEVEQGKPLAYIGSSGMIEIAIRNGSASAELRVGGGDEVELRKG` , soluble on expression in E. coli observed: not soluble

###

# assay procedure: soluble on expression in E. coli; label from the status in PepcDB or PDB records

| biopolymer sequence | soluble on expression in E. coli |
| --- | --- |
| QGEIRVGPSHQAKLPDLQPFPSPDGDTVTQHEELVWMPGVNDCDLLMYLRAARSMAAFAGMCDGGSTEDGCVAASRDDTTLNALNTLHESGYDAGKALQRLVKKPVPKLIEKCWTEDEVKRFVKGLRQYGKNFFRIRKELLPNKETGELITFYYYWKKT | not soluble |
| MIITTSRKPSQRTRSLVNDLARVFNFKILNRGKIPLSELIENKDDMIIVEELKGNPGRLKIFNFENNKILSMNLSLKLQREVSGKAFKNSGKLGSKFDKNTEHLKEFFFEYLFKKLSNYKEENFEVVITFKTVDESTFYIEVHKGSENMGPSLKIKTVKILDIELEHHHHHH | not soluble |

###

# assay procedure: soluble on expression in E. coli; label from the status in PepcDB or PDB records

| biopolymer sequence | soluble on expression in E. coli |
| --- | --- |
| MPIMSIISCKIMQDEIIWILENDSSIDETIIIDSENILEFVEKLDKVNLQYKVLSLEDISSLAEIRSECKNYTVMIHLMELGLHRSPKELKIKVYETIKTLAPFSSGILLFYGLCGNVLGDVEKDFERSSTSCPVRILKDKDHRIVDDCIGATVGGVNNYLRILKSVSDAGTYLFTPMYSKGWRELLDLNKLNKDPSKALKLMKKTHEMIGYKRVAKINTGLEYTENFDASIQEFAELFDFEILEFDDGNQKIFEDCYNELKAELLEHHHHHH | not soluble |
| MGSDKIHHHHHHAQSIAKGSTPDFSEARTLIKGALENPETKDDAKTWYVAGFIEDQQFSNERTKQVLGQQPDEPVMYEALGSILPYFEKAYELDQLPNEKGKVKPKFTKDIKGILGANHVYYINGGAYYFDQKDYNKAYDFFEQYLKISDMPMFKGEAVAERDSNFMTVQFYAAVAATQLGDSQKAIAALERAKNTDYRASEVYQYLCYEYEQAKDTVNLEKTLEEGLNKFPEEQYFLMSLINNYIYSNRNEKAIEYLNTAIAKDSNNPQLYDVMGRVYETGLKDYAKAEEYFKKALAINPDYIESLSNLGRVYYNQGVNKQGEANMINDAKQYQEELGKAKEFFKQALPYFEKAHQMKPEEREYMTALRGIYYNLNMGDKFDAIEAEMNK | not soluble |
| MSLRNDAYSTLRVSSEHGVARIILDNPPVNVIGATMMRELRTVLTTLADDSSVRVIVFSSADPEFFLAHVDMRIGEKMDALQELAASAPADVNVFQAVGELIRHQPQVTIVKLAGKARGGGAEFVAAADMAFAAAETAGLGQIEALMGIIPGGGGTQYLRGRVGRNRALEVVLTADLFDAETAASYGWINRALPADELDEYVDRVARNIAALPDGVIEAAKRSLPADDLKEGLLGENDAWAATFSLPAAQQLISGGLKDGAQTPAGERDLEGLMRSVAREGHHHHHH | soluble |
| MLIIETLPLLRQQIRRLRMEGKRVALVPTMGNLHDGHMKLVDEAKARADVVVVSIFVNPMQFDRPEDLARYPRTLQEDCEKLNKRKVDLVFAPSVKEIYPNGTETHTYVDVPGLSTMLEGASRPGHFRGVSTIVSKLFNLVQPDIACFGEKDFQQLALIRKMVADMGFDIEIVGVPIMRAKDGLALSSRNGYLTAEQRKIAPGLYKVLSSIADKLQAGERDLDEIITIAGQELNEKGFRADDIQIRDADTLLEVSETSKRAVILVAAWLGDARLIDNKMVELA | soluble |

###

# assay procedure: soluble on expression in E. coli; label from the status in PepcDB or PDB records
readout label: soluble on expression in E. coli

| biopolymer sequence | readout label | value measured |
| --- | --- | --- |
| MSLDARKNNVTIKVGMIGDSSIGKTSLMVTYVQGSFDEESTQTLGVNFMEKTISIRNTEITFSIWDLGGQREFVNMLPMVCNDAVAILFMFDLSRKSTLNSIKEWYRQARGFNKTAVPILIGTKYDHFMTFPREDQEEITKQARRYAKAMKASLVFCSTSHSINVQKIFKIVLAKVFDLKCTIPEIKNVGDPILEYIDREGHHHHHH | soluble on expression in E. coli | soluble |
| MGHHHHHHSHMLLPRGLDIKQEELGDLVDKEMAATSAAIETATARIEEMLSKSRAGDTGVKLEVNERILGCCTSLMQAIQVLIVASKDLQREIVESGRGTASPKEFYAKNSRWTEGLISASKAVGWGATVMVDAADLVVQGRGKFEELMVCSHEIAASTAQLVAASKVKADKDSPNLAQLQQASRGVNQATAGVVASTISGKSQIEETDNMDFSSMTLTQI | soluble on expression in E. coli | soluble |
| MHHHHHHGSKFKGSTFGRLVRIEFDILRLGELKIDDLSEFDTSEIKLEIKATSSGIKLVGVWEGDIEKVGEAIKKALEESIKLRERILRKMKSKVERIRKALLEMGFREEQFGYGEAVKFVKKVGDFEIAIIVSSREDIVRVEVYGEGNRKIIAPELEAFFESVDIEEIEVYDIEEEGREEKVVINLELPKSDEKPEKRITEAVKILENILMA | soluble on expression in E. coli | soluble |

###

# assay procedure: soluble on expression in E. coli; label from the status in PepcDB or PDB records
readout label: soluble on expression in E. coli

| biopolymer sequence | readout label | value measured |
| --- | --- | --- |
| MRGEVKKIIEAIGDIFIGHEDVIRKVLAVALVNGNILFEDYPGLGKTLLAKAFAKILGLKFKRIQFTPDLLPADIIGTKVWKPEKGAFEVVKGPIFTNILLADEINRAPPKTQSALLEAMEERQVTIEGETFKLERPFFIIATQNPLELEGTYPLPEAQLDRFLVRLNIGYPRNEEDELEILKARLRWGKDDPTSDISPIISREDFIRMQEEVERGVIIHDDILRYIVRLVRRIREDERIEAGPSPRGGLALMKLAKANAFIEGRSYVIPDDVKYFAVEALAHRIVLKPEYSLERGIAEEIIREVLEEVPVPKDIRY | soluble on expression in E. coli | soluble |
| MSYEKEFLKDFEDWVKTQIQVNQLAMATSQEVAQEDGDERAKDAFIRYESKLDAYEFLLGKFDNYKNGKAFHDIPDELFGARHY | soluble on expression in E. coli | soluble |
| MGHHHHHHSHMSQPPLLPASAETRKFTRALSKPGTAAELRQSVSEVVRGSVLLAKPKLIEPLDYENVIVQKKTQILNDCLREMLLFPYDDFQTAILRRQGRYICSTVPAKAEEEAQSLFVTECIKTYNSDWHLVNYKYEDYSGEFRQLPNKVVKLDKLP | soluble on expression in E. coli | not soluble |
| MRRKMIMKIIQITDTHLLPPGIAINGVDPENQLRAAVADIVEKHADADLLVMTGDLCNYGEPEAYELLRDILAPVSIPTRLMLGNHDRRPEFVAAFPEQPRDDNGYIQSFIDTEFGRLLFLDSHEADVIGGIYGADRLTWLENALESAGDLPITVFVHHPPMDCGIRHFEHIGMHDDGAIMRRLAAHPAGIRHIVFGHIHVPMAGTTAEGIAYSSGQACAHRFITDIDVVDPLWTGGNPCYRVISLGAFGLRAYDAEVGQPVLGQTPVCEGP | soluble on expression in E. coli | not soluble |

Reference source for all entries: the DeepSol protein solubility set
